# condition_details: in isobutanol, 323.15 K
reported_endpoint: solubility (mole fraction)

chemical_structure=COC(=O)c1cc(O)c(O)c(O)c1 recorded_measurement=0.0462

###

# condition_details: in ethyl acetate, 293.15 K
reported_endpoint: solubility (mole fraction)

chemical_structure=COC(=O)c1cc(O)c(O)c(O)c1 recorded_measurement=0.0217

###

# condition_details: in acetone, 328.15 K
reported_endpoint: solubility (mole fraction)

chemical_structure=COC(=O)c1cc(O)c(O)c(O)c1 reported_endpoint="solubility (mole fraction)" recorded_measurement=0.15

###

# condition_details: in ethyl acetate, 323.15 K
reported_endpoint: solubility (mole fraction)

chemical_structure=COC(=O)c1cc(O)c(O)c(O)c1 recorded_measurement=0.0487

The measurements presented in this section are drawn from BigSolDB 2.1.
